target: Cdc7/ASK (Homo sapiens); assay: Cdc7 Biochemical Assay Method 1: 384 well ELISA, whole protein substrate MCM2, antibody against Phospho MCM2 (S53); parameters: purchased; details: 2 μM ATP, read-out: Biochemical Method 1 (pIC50) (converted)
Sequence (O00311 whole entry): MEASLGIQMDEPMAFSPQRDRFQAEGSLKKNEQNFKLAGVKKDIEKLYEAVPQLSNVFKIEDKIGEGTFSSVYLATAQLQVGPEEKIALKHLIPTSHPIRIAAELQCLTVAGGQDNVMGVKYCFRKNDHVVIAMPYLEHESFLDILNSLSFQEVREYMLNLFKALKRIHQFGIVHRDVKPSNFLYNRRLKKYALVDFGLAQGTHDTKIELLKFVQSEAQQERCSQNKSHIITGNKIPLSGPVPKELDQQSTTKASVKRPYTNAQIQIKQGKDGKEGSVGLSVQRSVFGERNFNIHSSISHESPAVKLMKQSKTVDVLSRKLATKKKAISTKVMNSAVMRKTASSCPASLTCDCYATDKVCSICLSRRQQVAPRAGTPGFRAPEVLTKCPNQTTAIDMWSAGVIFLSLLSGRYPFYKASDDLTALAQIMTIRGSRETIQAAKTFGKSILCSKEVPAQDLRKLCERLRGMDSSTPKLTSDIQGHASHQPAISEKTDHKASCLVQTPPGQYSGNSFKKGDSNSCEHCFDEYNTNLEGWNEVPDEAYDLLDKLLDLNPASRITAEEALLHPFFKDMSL
Sequence (Q9UBU7 whole entry partner): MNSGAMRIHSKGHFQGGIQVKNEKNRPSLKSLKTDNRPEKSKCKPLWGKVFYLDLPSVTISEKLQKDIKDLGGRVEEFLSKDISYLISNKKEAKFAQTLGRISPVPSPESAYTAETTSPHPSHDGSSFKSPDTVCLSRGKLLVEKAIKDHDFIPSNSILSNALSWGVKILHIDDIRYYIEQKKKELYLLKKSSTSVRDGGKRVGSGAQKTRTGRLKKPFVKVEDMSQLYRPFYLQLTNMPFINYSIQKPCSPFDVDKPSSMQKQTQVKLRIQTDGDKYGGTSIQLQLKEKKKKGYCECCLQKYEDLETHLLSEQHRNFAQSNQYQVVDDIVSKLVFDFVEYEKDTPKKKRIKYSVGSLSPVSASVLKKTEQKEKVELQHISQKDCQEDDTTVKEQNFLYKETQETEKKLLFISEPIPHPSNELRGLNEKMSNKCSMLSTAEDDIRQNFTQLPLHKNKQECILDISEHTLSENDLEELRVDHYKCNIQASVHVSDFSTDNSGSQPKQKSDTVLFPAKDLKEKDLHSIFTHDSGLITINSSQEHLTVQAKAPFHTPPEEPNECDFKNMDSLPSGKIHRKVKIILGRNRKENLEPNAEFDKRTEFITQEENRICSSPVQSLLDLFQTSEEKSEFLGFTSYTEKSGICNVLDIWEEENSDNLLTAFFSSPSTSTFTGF
MEASURED QUANTITY: IC50 (µM)

The cases that follow already have their IC50 on record.
NC[C@@H]1CCCN(c2nc(-c3ccnc(F)c3)[nH]c(=O)c2Cl)C1 [Compound 363]; 0.00468
CN(C)C(=O)CN1CCN(c2nc(-c3ccncc3)[nH]c(=O)c2Cl)CC1 [Compound 110]; 0.661
COc1ccc(C2CN(c3nc(-c4ccncc4)[nH]c(=O)c3Cl)CCN2)cc1 (stereo not drawn) [Compound 169]; 0.0302
CC(C)N1CCN(c2nc(-c3ccncc3)[nH]c(=O)c2Cl)CC1 [Compound 86]; 0.138
NC[C@H]1CCCN(c2nc(-c3ccnc(F)c3)[nH]c(=O)c2Cl)C1 [Compound 362]; 0.00166
O=c1[nH]c(-c2ccncc2)nc(N2C[C@H]3C[C@@H]2CN3)c1Cl [Compound 161]; 0.0316

(1) O=c1[nH]c(-c2ccncc2)nc(N2CCC3(CC2)COC3)c1Cl [Compound 151]
(2) O=c1[nH]c(-c2ccnc(O)c2)nc(C2CCOCC2)c1Cl [Compound 402]
Exercise: Sorting by IC50 in descending order, would 1 or 2 appear first? Your choice should be expressed through its label.
Key: 2
(2: 0.112 µM, 1: 0.0347 µM)

###

target: Cdc7/Dbf4 (Homo sapiens); assay: Cdc7 Biochemical Assay Method 3: Cdc7/Dbf4 Enzyme TR-FRET Assay measuring pS40MCM2; conditions: 1 μM ATP, read-out: Biochemical Method 3 (pIC50) (converted)
Sequence (O00311 whole entry): as the sequence (O00311 whole entry) above
Sequence (Q9UBU7 whole entry partner): as the sequence (Q9UBU7 whole entry partner) above
# IC50 listing for each entry below
Kindly provide the numeric value in nM only, without the unit symbol.

The cases that follow already have their IC50 on record.
CN(c1nc(-c2ccnc(F)c2)[nH]c(=O)c1Cl)[C@H]1CCCNC1; 3.89
O=c1[nH]c(-c2ccnc(F)c2)nc(N2CCC3(CNC3)C2)c1Cl; 2.04
O=c1[nH]c(-c2ccnc(F)c2)nc(N2CCCC3NCCC32)c1Cl (centres unmarked); 0.794
O=c1[nH]c(-c2ccnc(F)c2)nc(N2CCN3CCC[C@H]3C2)c1Cl; 1.95

Please turn your attention to the following entry.
IC50 in this record for `O=c1[nH]c(-c2ccnc(F)c2)nc(N2C3CCC2CNC3)c1Cl` : 0.851

###

tested on: Cdc7 (pS53MCM2 levels in HCT116 cells); test: Cdc7 Cell Pharmacodynamics Assay Method 1: pS53MCM2 levels in HCT116 cells, 6 hours; format: cell-based; conditions: Homo sapiens, HCT-116, 6 h, read-out: Biomarker Method 1 (pEC50) (converted)
MEASURED QUANTITY: EC50 (µM)

The cases that follow already have their EC50 on record.
CS(=O)(=O)N1CCCN(c2nc(-c3ccncc3)[nH]c(=O)c2Cl)CC1; 0.269
O=c1[nH]c(-c2ccncc2)nc(N2CCCOCC2)c1Cl; 0.347
O=c1[nH]c(-c2ccncc2)nc(N2CCN(CC(F)F)CC2)c1Cl; 0.115
CC1CCCN(c2nc(-c3ccncc3)[nH]c(=O)c2Cl)C1 (stereo not shown); 0.427
N[C@H]1CCCN(c2nc(-c3ccnc(F)c3)[nH]c(=O)c2Cl)C1; 0.0977

(1) O=c1[nH]c(-c2ccncc2)nc(N2CCN(CC3CCCC3)CC2)c1Cl
(2) O=c1[nH]c(-c2ccncc2)nc(N2CCCC(F)C2)c1Cl (stereo not shown)
Exercise: Sorting by EC50 in descending order, would 1 or 2 appear first? Your choice should be expressed through its label.
Key: 1
(1: 0.589 µM, 2: 0.112 µM)
